Data provenance: paper PMC7869511

B1: Fc-fused protein of human TIGIT [human] / wild type human PVR, full length, on CHO-K1 cells [human] (parent complex)
chain 1: MMTGTIETTGNISAEKGGSIILQCHLSSTTAQVTQVNWEQQDQLLAICNADLGWHISPSFKDRVAPGPGLGLTLQSLTVNDTGEYFCIYHTYPDGTYTGRIFLEVLESSVAEHGARFQIP
chain 2: WPPPGTGDVVVQAPTQVPGFLGDSVTLPCYLQVPNMEVTHVSQLTWARHGESGSMAVFHQTQGPSYSESKRLEFVAARLGAELRNASLRMFGLRVEDEGNYTCLFVTFPQGSRSVDIWLRVLAKPQNTAEVQKVQLTGEPVPMARCVSTGGRPPAQITWHSDLGGMPNTSQVPGFLSGTVTVTSLWILVPSSQVDGKNVTCKVEHESFEKPQLLTVNLTVYYPPEVSISGYDNNWYLGQNEATLTCDARSNPEPTGYNWSTTMGPLPPFAVAQGAQLLIRPVDKPINTTLICNVTNALGARQAELTVQVKEGPPSEHSGISRNAIIFLVLGILVFLILLGIGIYFYWSKCSREVLWHCHLCPSSTEHASASANGHVSYSAVSRENSSSQDPQTEGTR

# Variants of: B1
# TEST_PROTOCOL: flow cytometry on cells; 120 nM hTIGIT-Fc; CHOK1 cells overexpressing hPVR; parent: 1; read off a plot
For each entry below, report its ratio to parent value.

For orientation, consider the following solved cases.
Form field: reported ratio to parent of chain 2 S54W
~1.2

Can you handle chain 2 S112Q next?
~1.4

Can you handle chain 2 G111M next?
~0.93

Can you handle chain 2 G111V next?
~1.6

Can you handle chain 2 S67W next?
~0.82

Can you handle chain 2 S52R next?
~1.1

Can you handle chain 2 S52W next?
~1.2

Can you handle chain 2 G111W next?
~0.55

Can you handle chain 2 S112R next?
~1

We now examine a further variant.
Form field: reported ratio to parent of chain 2 T45E
~0.1
